Molecular target: CB1 receptor (Rattus norvegicus)
Construct: whole brain was homogenized and centrifuged; from tissue; host or cells: whole brain of male Sprague-Dawley rats, P2 membrane fraction
Assay: CB1 binding procedure, displacement of [3H]CP 55,940 from rat whole-brain P2 membranes
Conditions: Table 6; read-out: CB1 KI
// Ki lookup, one value per entry

Solved entries (count: 6):
C=C(C)[C@@H]1CCC(C)=CC1c1ccc(O)cc1O (single isomer, unassigned; (-)) [O-1848] = > 10 µM
COc1cc(C)cc(OC)c1C1(O)CCCCC1 [O-2298] = > 10 µM
CCCCCCC(C)(C)c1cc(O)c(C2CCCC(C)C2)c(O)c1 (single isomer, unassigned) [O-1798B] = 0.00433 µM
CCCCCCC(C)(C)c1cc(O)c(C2CCCC(C)(C)C2)c(O)c1 (centres unmarked) [O-1871] = 0.0023 µM
C=C(C)[C@@H]1CCC(C)=CC1c1c(O)cc(C)cc1O (single isomer, unassigned; (-)) [O-1821] = > 10 µM
CCCCCCC(C)(C)c1cc(O)c(C2C3CC4CC(C3)CC2C4)c(O)c1 (centres unmarked) [O-1660] = 0.0075 µM

Input line: Please give the measured Ki for this compound: CCCCCCC(C)(C)c1cc(OC)c(C2(O)CC(=O)CC(C)C2)c(OC)c1 (centres unmarked) [O-2123]
Output line: 7.33 µM

Input line: Next up: C=C(C)[C@@H]1CCC(C)=CC1c1c(O)c(I)c(C)c(I)c1O (single isomer, unassigned; (-)) [O-1868]
Output line: > 10 µM

* * *

// Ki lookup, one value per entry
Molecular target: CB1 receptor (Rattus norvegicus, UniProt P20272)
Construct: whole brain was homogenized and centrifuged; from tissue; host or cells: whole brain of male Sprague-Dawley rats, P2 membrane fraction
Sequence (P20272 whole entry): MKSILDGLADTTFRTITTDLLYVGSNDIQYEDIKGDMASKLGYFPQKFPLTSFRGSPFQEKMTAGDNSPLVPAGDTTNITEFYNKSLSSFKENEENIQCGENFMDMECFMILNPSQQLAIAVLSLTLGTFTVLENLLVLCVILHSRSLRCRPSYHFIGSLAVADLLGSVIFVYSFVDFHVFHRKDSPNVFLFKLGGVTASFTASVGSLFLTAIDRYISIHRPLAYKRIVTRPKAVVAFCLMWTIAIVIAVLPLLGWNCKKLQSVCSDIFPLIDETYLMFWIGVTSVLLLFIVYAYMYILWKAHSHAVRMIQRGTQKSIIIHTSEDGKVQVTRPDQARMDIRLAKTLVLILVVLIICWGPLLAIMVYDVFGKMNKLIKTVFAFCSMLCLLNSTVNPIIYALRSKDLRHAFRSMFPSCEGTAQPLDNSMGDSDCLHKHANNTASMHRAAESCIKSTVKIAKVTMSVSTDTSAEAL
Experiment: CB1 binding procedure, displacement of [3H]CP 55,940 from rat whole-brain P2 membranes
Conditions: Table 6; read-out: CB1 KI
Express the result in nM but write the number alone.

CCCCCCC(C)(C)c1cc(O)c(C2CCCCCC2)c(O)c1 [O-1656] = 17.8

Kindly review the next molecule as well.
Input line: Please give the measured Ki for this molecule: CCCCCCC(C)(C)c1cc(OC)c(C2(O)CCC[C@@H](C)C2)c(OC)c1 (stereo in doubt) [compound 2137]
Output line: 2670

* * *

Molecular target: CB2 receptor (Homo sapiens, UniProt P34972)
Construct: expressed in transfected cells
Sequence (P34972 whole entry): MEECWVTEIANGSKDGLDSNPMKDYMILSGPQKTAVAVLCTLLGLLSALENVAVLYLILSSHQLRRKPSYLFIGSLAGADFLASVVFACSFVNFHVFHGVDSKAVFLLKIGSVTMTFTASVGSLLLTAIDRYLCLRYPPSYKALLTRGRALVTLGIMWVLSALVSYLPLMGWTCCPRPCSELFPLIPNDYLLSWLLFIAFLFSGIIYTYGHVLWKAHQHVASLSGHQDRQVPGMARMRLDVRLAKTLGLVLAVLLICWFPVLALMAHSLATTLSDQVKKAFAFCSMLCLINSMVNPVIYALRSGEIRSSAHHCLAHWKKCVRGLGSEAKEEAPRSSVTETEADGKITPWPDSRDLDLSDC
Experiment: CB2 binding procedure, displacement of [3H]CP-55,940 from membranes of transfected CHO cells
Settings: ratio of CB1 Ki to CB2 Ki
Think of 7 as a floor: if CB1/CB2 stands on it or above, it is Fulfilled; beneath it, Not fulfilled.

Some solved entries appear below for comparison.
CCCCCCC(C)(C)c1cc(O)c(C2CCCC(C)C2)c(O)c1 (mixture of isomers) [O-1657] = Fulfilled
CCCCCCC(C)(C)c1cc(O)c(C2CCSC2)c(O)c1 (stereo not drawn) = Not fulfilled
CCCCCCC(C)(C)c1cc(OC)c(C2(O)CCC3(CC2)OCCO3)c(OC)c1 = Fulfilled
CCCCCCC(C)(C)c1cc(O)c(C2C3CC4CC(C3)CC2C4)c(O)c1 (stereo not drawn) = Not fulfilled
CCCCCCC(C)(C)c1cc(O)c(C2CCSCC2)c(O)c1 = Fulfilled

Input line: Evaluate `CCCCCCC(C)(C)c1cc(OC)c(C2(O)CCCCCC2)c(OC)c1` : CB1/CB2 at minimum 7?
Output line: Fulfilled

Input line: Next up: `CCCCCCC(C)(C)c1cc(OC)c(C2(O)CCCCC2)c(OC)c1`
Output line: Fulfilled

Input line: Next up: `CCCCCCC(C)(C)c1ccc(-c2cc(CO)ccc2C(C)C)c(O)c1`
Output line: Not fulfilled
